Origin of measurements: the supplement of paper PMC9732359

# protocol.notes: protein stability index of a GFP-peptide fusion (yeast GPS) (PSI 1-4); higher = more stable; sorted into four equal gates, so the index is relative within each strain
# details: ubr1∆
Parameter threshold = 2. Response is criterion met when protein stability index meets or exceeds it, else criterion not met.

Here are 2 sequences together with their reported answers.
VAMCFVINKLDRLILDL [SNU114]
criterion met
MKPEVEQELAHILLTEL [FAS2]
criterion met

API: above_or_equal(metric=protein stability index, cutoff=2) for item VFLYFEDNAGVIANPKG [RPL23A]
criterion not met

API: above_or_equal(metric=protein stability index, cutoff=2) for item SLQDLIYKRGQAGVTKA [SMC2]
criterion met

API: above_or_equal(metric=protein stability index, cutoff=2) for item GSESDDSEGSIKQTSDE [ECM29]
criterion met
